- Test system: NCI-H226 lung
- PROTOCOL: NCI-60 one-dose screen, 48 h
- RUN PARAMETERS: 10 µM unless noted
Compounds without any hit were thinned out: in the full panel of roughly 83,000, 20% have a hit. Calls of active or inactive are those of the source. Rule for the calls: active = growth percent below 10; inactive = the rest.
Respond with a class label; see label 1 = active, label 0 = inactive

Consider the following illustrative entries.
- CNCCCn1c2c(c3ccc(Cl)cc3c1=O)C(=O)c1cc(OC)cnc1-2: label 0
- O=C(Cc1ccc([N+](=O)[O-])cc1)Oc1ccccc1: label 0
- Cc1ccccc1NC(=O)c1sc2nc3c(cc2c1N)C(=O)CCC3: label 0
- CC(C)[C@@]12C[C@@H](OC(=O)[C@H]3CO3)[C@@](C)(O1)[C@@H]1CC[C@@H](C)[C@H]1[C@@H]2OC(=O)/C=C/c1ccccc1: label 0
- FC(F)(F)c1nn[nH]n1: label 0

Called result for O=[N+]([O-])c1ccc(SSc2ccc([N+](=O)[O-])cc2Cl)c(Cl)c1
label 0

Name the outcome recorded for c1cn2cc(-c3ccc4ncn(C5CCCCC5)c4c3)nc(-c3ccc4c(c3)ncn4C3CCCCC3)c2n1 in the assay.
label 1

# outcome recorded in this test, key = Clc1cc(Cl)cc(-c2cnc3nonc3n2)c1
label 0

Please indicate how the test categorized Cc1ccccc1C1CC(=O)c2ccccc2C1C (configuration not stated) .
label 0
